- experimentalTarget: HIV Env of isolate X1632_S2_B10 (clade G) (HIV)
- protocolDetails: cell-based or functional assay
Below: a set of entries, each annotated with reported IC50 (µg/ml) with constrains.
Dear colleague, please return just the value in µg/mL, with no unit written.

binder="ePGDM5 (antibody, V domains shown) VH: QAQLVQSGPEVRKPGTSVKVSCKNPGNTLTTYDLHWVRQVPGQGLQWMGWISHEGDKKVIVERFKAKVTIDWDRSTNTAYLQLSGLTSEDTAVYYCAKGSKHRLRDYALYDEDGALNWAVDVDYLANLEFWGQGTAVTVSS VL: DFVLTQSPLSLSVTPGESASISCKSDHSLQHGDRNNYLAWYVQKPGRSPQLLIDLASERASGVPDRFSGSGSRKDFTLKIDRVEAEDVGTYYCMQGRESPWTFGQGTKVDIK" measurement=0.003

# query: IC50 (µg/ml) with constrains of entry ePGDM13 (antibody, V domains shown) VH: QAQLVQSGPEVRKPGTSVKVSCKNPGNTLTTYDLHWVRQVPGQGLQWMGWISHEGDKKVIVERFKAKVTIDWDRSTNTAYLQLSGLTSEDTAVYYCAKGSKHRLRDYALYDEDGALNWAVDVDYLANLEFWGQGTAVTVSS VL: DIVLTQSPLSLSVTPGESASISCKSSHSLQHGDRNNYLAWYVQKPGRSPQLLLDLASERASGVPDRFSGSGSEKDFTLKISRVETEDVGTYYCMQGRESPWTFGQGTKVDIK
0.003

Quick check: IC50 (µg/ml) with constrains of PGDM1400 (antibody, V domains shown) VH: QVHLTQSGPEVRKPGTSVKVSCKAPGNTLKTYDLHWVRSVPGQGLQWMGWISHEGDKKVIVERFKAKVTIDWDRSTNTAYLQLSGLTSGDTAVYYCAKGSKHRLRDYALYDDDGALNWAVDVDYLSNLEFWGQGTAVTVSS VL: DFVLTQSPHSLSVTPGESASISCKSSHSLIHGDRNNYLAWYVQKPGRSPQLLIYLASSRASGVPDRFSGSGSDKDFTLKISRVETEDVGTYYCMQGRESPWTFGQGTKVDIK ?
0.034

Item ePGDM9 (antibody, V domains shown) VH: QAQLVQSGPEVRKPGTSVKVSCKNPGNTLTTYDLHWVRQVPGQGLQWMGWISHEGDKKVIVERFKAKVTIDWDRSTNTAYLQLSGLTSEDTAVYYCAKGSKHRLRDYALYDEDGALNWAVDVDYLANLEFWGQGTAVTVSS VL: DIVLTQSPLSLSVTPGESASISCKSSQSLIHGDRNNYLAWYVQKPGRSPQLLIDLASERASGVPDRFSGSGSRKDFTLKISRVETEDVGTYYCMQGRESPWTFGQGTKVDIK has what recorded IC50 (µg/ml) with constrains?
0.003

The reported numbers originate from patent US20230134571A1.
